# TEST_PROTOCOL: Metabolic stability in CD1 mouse liver microsomes assessed as intrinsic clearance measured upto 60 mins by LC-MS/MS analysis
# Assay type: ADME
# TEST_CONDITIONS: read-out: CLH
Please use the following microsomal CLint ranges when assigning a class: low: < 40 µL/min/mg; moderate: ≥ 40 µL/min/mg and < 200 µL/min/mg; high: ≥ 200 µL/min/mg

Illustrative cases are given below, each with its answer.
N#Cc1ccc2nc(NC(=O)c3ccccn3)n(CC(F)(F)F)c2c1 high
CC(=O)N1CCC(n2c(NC(=O)c3ccnn3C)nc3ccc(C#N)cc32)CC1 low
CCCn1c(NC(=O)Cc2ccc(F)cc2)nc2ccc(C(=O)NC)cc21 moderate
CCCn1c(NC(=O)c2cccnc2)nc2cccnc21 high
CCCn1c(NC(=O)c2ccccn2)nc2cc(F)ccc21 high
N#Cc1ccc2nc(NC(=O)c3cc(C(F)(F)F)n[nH]3)n(CC(F)F)c2c1 moderate

Hi there! Could you help me figure out the category for Cc1nnnn1CC(=O)Nc1nc2ccc(C#N)cc2n1CC(F)(F)F please?
low

Hi there! Could you help me figure out the category for CCCn1c(NC(=O)Cc2ccc(F)cc2)nc2ccc(C(=O)NCOC)cc21 please?
moderate

Hi there! Could you help me figure out the category for CCCn1c(NC(=O)c2cccnc2)nc2cc(F)ccc21 please?
moderate

Hi there! Could you help me figure out the category for CCCn1c(NC(=O)Cc2ccc(F)cc2)nc2ccc(C(=O)OC)cc21 please?
high

Hi there! Could you help me figure out the category for Cn1nccc1C(=O)Nc1nc2ccc(C#N)cc2n1CC(F)F please?
high

Hi there! Could you help me figure out the category for N#Cc1ccc2nc(NC(=O)Cn3cccn3)n(CC(F)(F)F)c2c1 please?
low

Hi there! Could you help me figure out the category for CS(=O)(=O)c1ccc2c(c1)nc(NC(=O)c1ccnc(C(F)(F)F)c1)n2CC(F)(F)F please?
low

Hi there! Could you help me figure out the category for CCCn1c(NC(=O)Cc2ccc(Cl)cc2)nc2cc(C(F)(F)F)ccc21 please?
high

Hi there! Could you help me figure out the category for Cn1nccc1C(=O)Nc1nc2ccc(C#N)cc2n1CC(C)(C)O please?
low

Hi there! Could you help me figure out the category for CCCn1c(NC(=O)Cc2ccc(Cl)cc2)nc2ccc(F)cc21 please?
high

Hi there! Could you help me figure out the category for Cc1nc(C)c(C(=O)Nc2nc3ccc(C#N)cc3n2CC(F)(F)F)s1 please?
high

Hi there! Could you help me figure out the category for CC(C)(O)Cn1c(NC(=O)c2ccc(C(F)(F)F)nc2)nc2ccc(C#N)cc21 please?
low

Hi there! Could you help me figure out the category for O=C(Nc1nc2ccc(F)cc2n1C1CC1)c1cccnc1 please?
moderate

Hi there! Could you help me figure out the category for CCCn1c(NC(=O)Cc2ccc(F)cc2)nc2c(F)cccc21 please?
high

Hi there! Could you help me figure out the category for Cn1nccc1C(=O)Nc1nc2ccc(C#N)cc2n1CCF please?
moderate

Hi there! Could you help me figure out the category for N#Cc1ccc2nc(NC(=O)c3ccnc(C(F)(F)F)c3)n(CC(F)(F)F)c2c1 please?
low

Hi there! Could you help me figure out the category for CCCn1c(NC(=O)Cc2ccc(Cl)cc2)nc2ccc(C#N)cc21 please?
high

Hi there! Could you help me figure out the category for O=C(Nc1nc2cc(F)ccc2n1C1CCOCC1)c1cccnc1 please?
low

Hi there! Could you help me figure out the category for Cc1cc(C(=O)Nc2nc3ccc(C#N)cc3n2CC(F)(F)F)nn1C please?
moderate

Hi there! Could you help me figure out the category for N#Cc1ccc2nc(NC(=O)c3ccc(C(F)(F)F)nc3)n(CC(F)(F)F)c2c1 please?
low

Hi there! Could you help me figure out the category for CC(C)(C)Cn1c(NC(=O)c2cccnc2)nc2ccc(C#N)cc21 please?
moderate
